- TARGET_OR_SYSTEM: UniProtKB P47898
- Sequence (P47898 whole entry): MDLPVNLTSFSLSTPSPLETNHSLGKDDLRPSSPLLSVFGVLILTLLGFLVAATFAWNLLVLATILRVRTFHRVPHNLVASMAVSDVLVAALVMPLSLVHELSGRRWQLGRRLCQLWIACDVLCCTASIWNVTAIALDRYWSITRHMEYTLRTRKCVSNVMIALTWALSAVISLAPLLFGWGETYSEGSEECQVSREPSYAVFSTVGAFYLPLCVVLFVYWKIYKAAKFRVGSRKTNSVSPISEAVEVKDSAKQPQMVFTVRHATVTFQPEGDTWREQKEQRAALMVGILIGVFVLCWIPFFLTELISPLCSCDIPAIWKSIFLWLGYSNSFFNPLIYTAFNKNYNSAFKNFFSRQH
READOUT_NAME: pKi
# pKi = -log10(concentration in molar units)

Query string: Give reported pKi value for CN(C)CCc1c[nH]c2ccc(I)cc12
Result string: 5.90

---

The listing below reports pKi for compounds tested on 5-HT6 (Homo sapiens, UniProt P50406).
Sequence (P50406 whole entry): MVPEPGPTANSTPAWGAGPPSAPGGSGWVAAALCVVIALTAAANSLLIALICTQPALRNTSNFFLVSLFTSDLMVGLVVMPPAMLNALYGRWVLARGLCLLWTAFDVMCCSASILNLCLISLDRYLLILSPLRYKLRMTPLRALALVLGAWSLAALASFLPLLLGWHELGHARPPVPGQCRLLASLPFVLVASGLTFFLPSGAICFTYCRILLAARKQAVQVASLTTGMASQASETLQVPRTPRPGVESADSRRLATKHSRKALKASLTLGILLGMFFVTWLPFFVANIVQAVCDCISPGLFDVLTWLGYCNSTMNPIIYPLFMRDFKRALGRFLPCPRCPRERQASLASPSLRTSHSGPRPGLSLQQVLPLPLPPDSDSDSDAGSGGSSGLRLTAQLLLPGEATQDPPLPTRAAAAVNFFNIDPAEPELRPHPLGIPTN
# pKi = -log10(concentration in molar units)

Query string: Give reported pKi value for CN(C)CCc1c[nH]c2ccccc12 [2a, 2-(1H-indol-3-yl)-N,N-dimethylethanamine]
Result string: 6.72

Query string: Give reported pKi value for CN(C)CCc1c[nH]c2ccc(I)cc12 [2e]
Result string: 6.70
